System: HSV-1
protocol_notes: HSV-1 replication in infected Vero 76 cells, viral DNA hybridization capture assay
Format: cell-based
details: Human alphaherpesvirus 1, Vero 76, HSV-1, Vero 76 cells, MOI=0.001, 40–48 hours incubation
I'd appreciate it if you could supply IC50 values for the items below.
Only the number, expressed in nM, is required.

# input # query: IC50 of entry CCCCNc1nccc(-c2c(-c3ccc(Br)cc3)nn3c(NCCCC)cccc23)n1 [Example 2]
# output 700

# input # query: IC50 of entry Nc1nccc(-c2c(-c3ccc(F)cc3)nn3c(NC4CCCC4)cccc23)n1 [Example 12]
# output 500

# input # query: IC50 of entry CCCCNc1nccc(-c2c(-c3ccc(F)cc3)nn3c(NCCOC)cccc23)n1 [Example 48]
# output 300

# input # query: IC50 of entry CCCCNc1nccc(-c2c(-c3ccc(F)cc3)nn3c(-c4ccco4)cccc23)n1 [Example 78]
# output 950

# input # query: IC50 of entry Cc1cc(-c2c(-c3ccc(F)cc3)nn3c(N)cccc23)nc(NC2CCCC2)n1 [Example 72]
# output 4400

# input # query: IC50 of entry CCCCNc1nccc(-c2c(-c3ccc(F)cc3)nn3c(N4CCN(C)CC4)cccc23)n1 [Example 35]
# output 900

# input # query: IC50 of entry Cc1cnc(NC2CCCC2)nc1-c1c(-c2ccc(F)cc2)nn2c(NC3CCCC3)cccc12 [Example 53]
# output 1000
